Data credit: patent US20260015350A1

Quick list: IC50 per entry.
# STUDY_TARGET: KRas^G12D (Homo sapiens, UniProt P01116, G12D)
# Construct: Biotinylated KRas (corresponding to amino acids 1-169, produced at Accelegan Inc.); biotin (biotinylated); purchased Accelegan Inc
# Sequence (P01116 1-169 isoform P01116-2 G12D): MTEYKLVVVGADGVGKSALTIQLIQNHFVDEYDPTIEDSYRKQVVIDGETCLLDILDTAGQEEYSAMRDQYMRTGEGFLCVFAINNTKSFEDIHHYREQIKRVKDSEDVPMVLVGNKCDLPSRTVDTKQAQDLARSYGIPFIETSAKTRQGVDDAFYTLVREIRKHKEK
# ASSAY_OVERVIEW: KRas binding assay (TR-FRET tracer displacement), KRas G12D

Example entries begin here.
COMPOUND | IC50
C=C1CN2CCCC2(COc2nc(N3CCCC(C)(O)C3)c3cnc(-c4cc(O)cc5ccc(F)c(CC)c45)c(F)c3n2)C1 (stereo in doubt) | < 2 nM
CCc1c(F)ccc2cc(O)cc(-c3ncc4c(N5CCN(C)C[C@]6(C)CCC[C@@H]56)nc(OC[C@@]56CCCN5C[C@H](F)C6)nc4c3F)c12 | 102 nM

Consider now this further compound.
// fetch IC50 given entry C=C1CN2CCCC2(COc2nc(N3C[C@@H]4C[C@H](C3)[C@H](O)C4)c3cnc(-c4cc(O)cc5ccc(F)c(CC)c45)c(F)c3n2)C1 (stereo partly drawn)
< 2 nM
